Where these numbers come from: PubChem BioAssay AID1259407

# System: CCRIS mutagenicity, Ames/micronucleus/aberration tests
# assay: CCRIS mutagenicity studies
# condition-set: Test System: AMES SALMONELLA TYPHIMURIUM; Strain/Indicator: TA98(1,8-DNP); Metabolic Activation: RAT, LIVER, S-9, PCB; Method: PREINCUBATION
Active and inactive are the calls of the source. The rule behind the calls is not given here.
Outcome (select one): active, inactive

Completed entries (count: 3):
molecular-string	class
Nc1nc(-c2ccc([N+](=O)[O-])cc2)nc2c1ncn2-c1ccc([N+](=O)[O-])cc1	active
O=[N+]([O-])c1ccc(Nc2ncnc3nc[nH]c23)cc1	inactive
O=[N+]([O-])c1ccc(CNc2ncnc3nc[nH]c23)cc1	inactive

API: the following record is the query input.
Q) Please state the recorded outcome for this compound: `Nc1ncnc2nc(-c3ccc([N+](=O)[O-])cc3)[nH]c12`
A) active

====

# Test system: CCRIS mutagenicity, Ames/micronucleus/aberration tests
# assay: CCRIS mutagenicity studies
# condition-set: Test System: MOUSE LYMPHOMA; Strain/Indicator: L5178Y (TK+/TK-); Metabolic Activation: NONE; Method: SUSPENSION/PLATE
Activity calls are given as the source filed them. How the calls were made is not given here.
observed-property: mutagenic call

Solved cases below.
compound	mutagenic call
CCOCCc1c(-c2ccccc2)nc(N)n2ncnc12	inactive; negative
c1ccc2cc3ccccc3cc2c1	inactive; negative
CCN(CC)CCNc1ccc(C)c2sc3ccccc3c(=O)c12	active; positive
Clc1cc2c(cc1Cl)Oc1cc(Cl)c(Cl)cc1O2	inactive; negative
O=C(c1ccccc1)C(O)c1ccccc1 (stereo not drawn)	inactive; negative

Q) Query (compound): `CN(C)C(=O)Cl` ; field requested: mutagenic call
A) active; positive

====

# Test system: CCRIS mutagenicity, Ames/micronucleus/aberration tests
# assay: CCRIS mutagenicity studies
# condition-set: Test System: E. COLI; Strain/Indicator: WP2 UVRA; Metabolic Activation: NONE; Method: PREINCUBATION
Activity calls are given as the source filed them. How the calls were made is not given here.
Outcome (select one): t (active), f (inactive)

Completed entries (count: 5):
compound	class
CC1(C)SSC[C@@H](C(=O)O)NC1=O	f
COP(=O)(OC)OC=C(Cl)Cl	t
Cc1oc(=O)oc1COC(=O)[C@@H]1N2C(=O)[C@@H](NC(=O)[C@H](N)c3ccccc3)[C@H]2SC1(C)C	f
COC(=O)C1=C(C)NC(C)=C(C(=O)OC/C=C/c2ccccc2)C1c1cccc([N+](=O)[O-])c1 (stereo not drawn)	f
NN	t

Q) Please state the recorded outcome for this compound: ClCC1CO1 (stereo not drawn)
A) t

Q) Please state the recorded outcome for this compound: `CC(C)O`
A) f

Q) Please state the recorded outcome for this compound: `C[C@H]1COc2c(C3(N)CC3)c(F)cc3c(=O)c(C(=O)O)cn1c23`
A) f

Q) Please state the recorded outcome for this compound: CC(O)CN (stereo not drawn)
A) f

Q) Please state the recorded outcome for this compound: `CCOCn1cc(F)c(=O)n(C(=O)c2cccc(C(=O)Oc3nc(OC(=O)c4ccccc4)ccc3C#N)c2)c1=O`
A) f

====

# Tested on: CCRIS mutagenicity, Ames/micronucleus/aberration tests
# assay: CCRIS mutagenicity studies
# condition-set: Test System: AMES SALMONELLA TYPHIMURIUM; Strain/Indicator: TA1535; Metabolic Activation: NONE; Method: STANDARD PLATE
The source made the active and inactive calls. No rule for the calls is given here.
Outcome (select one): active, inactive

Q) Please state the recorded outcome for this molecule: `[N-]=[N+]=NCCO`
A) active

Q) Please state the recorded outcome for this molecule: `c1ccc2c(c1)CCCC2`
A) inactive

Q) Please state the recorded outcome for this molecule: `Nc1cc(-c2ccncc2)c[nH]c1=O`
A) inactive

Q) Please state the recorded outcome for this molecule: `C=CCCCCCCCCCCCCC`
A) inactive

Q) Please state the recorded outcome for this molecule: `C[C@]12CCC(=O)C=C1[C@@H]1C[C@@H]1[C@H]1[C@@H]3[C@@H]4C[C@@H]4[C@@]4(CCC(=O)O4)[C@@]3(C)CC[C@@H]12`
A) inactive

Q) Please state the recorded outcome for this molecule: `O=C1c2ccccc2C(=O)c2c(O)ccc(O)c21`
A) inactive

Q) Please state the recorded outcome for this molecule: `O=[N+]([O-])c1ccccc1C(F)(F)F`
A) inactive

Q) Please state the recorded outcome for this molecule: `CN(C)C(=O)Cl`
A) active

Q) Please state the recorded outcome for this molecule: `C[Si]1(C)O[Si](C)(C)O[Si](C)(C)O[Si](C)(C)O[Si](C)(C)O1`
A) inactive

Q) Please state the recorded outcome for this molecule: C=CCCC1CO1 (stereo not drawn)
A) active

Q) Please state the recorded outcome for this molecule: `CCN(CCCl)CCCNc1c2ccccc2nc2c1ccc1ccccc12`
A) inactive

Q) Please state the recorded outcome for this molecule: O=C(c1ccccc1)C(O)c1ccccc1 (stereo not drawn)
A) inactive

Q) Please state the recorded outcome for this molecule: `Nc1c2ccccc2nc2ccccc12`
A) inactive
